PROTOCOL TEXT: Cytotoxicity against HLF cells
Assay type: cell-based
COND: human
QUANTITY KIND: CC50 (µM)
API: value field is a number in µM; no unit string.

-- ask # CC50 lookup, item NC(=O)C1CCN(c2c(Cl)cncc2Cl)CC1
-- reply 100

====

PROTOCOL TEXT: Selectivity index, ratio of CC50 for human lung fibroblast cells to EC50 for Human cytomegalovirus Towne
Type: toxicity, cell-based
COND: read-out: Selectivity Index
QUANTITY KIND: selectivity ratio

-- ask # selectivity ratio lookup, item NC(=O)C1CCN(c2c(Cl)cncc2Cl)CC1
-- reply > 10

====

PROTOCOL TEXT: Antiviral activity against Murine cytomegalovirus strain Smith infected in mouse NIH 3T3 cells after 4 to 5 days by plaque reduction assay
Type: functional, cell-based
COND: Murid betaherpesvirus 1, NIH3T3
QUANTITY KIND: EC50
Number first, unit second.

# COMPOUND STRUCTURE, EC50
measured = [
    ("Nc1nc2c(ncn2COC(CO)CO)c(=O)[nH]1", "5.7 µM"),
]

// next entry
-- ask # EC50 lookup, item NC(=O)C1CCN(c2c(Cl)cncc2Cl)CC1
-- reply 3 µM

====

System: Human betaherpesvirus 5
PROTOCOL TEXT: Antiviral activity against human cytomegalovirus Towne infected in human U4C-48 cells assessed as decrease in viral titer by luciferase reporter gene assay
Assay type: functional, organism-based
COND: Human betaherpesvirus 5, Towne
QUANTITY KIND: EC50

-- ask # EC50 lookup, item NC(=O)C1CCN(c2c(Cl)cncc2Cl)CC1
-- reply 5 µM

====

PROTOCOL TEXT: Cytotoxicity against human hTERT-BJ1 cells
Assay type: cell-based, BJ
QUANTITY KIND: CC50 (µM)
API: value field is a number in µM; no unit string.

-- ask # CC50 lookup, item NC(=O)C1CCN(c2c(Cl)cncc2Cl)CC1
-- reply 100

====

PROTOCOL TEXT: Selectivity index, ratio of CC50 for human hTERT-BJ1 cells to EC50 for Human cytomegalovirus Towne
Type: toxicity, cell-based, BJ
COND: read-out: Selectivity Index
QUANTITY KIND: selectivity ratio

-- ask # selectivity ratio lookup, item NC(=O)C1CCN(c2c(Cl)cncc2Cl)CC1
-- reply > 10

====

Tested on: Human betaherpesvirus 5
PROTOCOL TEXT: Antiviral activity against Human cytomegalovirus AD169 infected in human U4C-48 cells assessed as decrease in viral titer by luciferase reporter gene assay
Format: functional, organism-based
COND: Human betaherpesvirus 5, AD169, U4C-48
QUANTITY KIND: EC50
Number first, unit second.

-- ask # EC50 lookup, item NC(=O)C1CCN(c2c(Cl)cncc2Cl)CC1
-- reply 5 µM
